Data credit: the supplement of paper PMC5412046

# System: SB.mhdgc-1
# experiment: area under the dose-response curve of % viability (trapezoidal, 11 doses) (% viability x log10 concentration); higher = less cytotoxic
# experimental-setup: SB.mhdgc-1 (hereditary c.1380delA CDH1 gastric cancer)
Where a name gives a salt, the structure may show the parent alone.
Reported area under the dose-response curve is given for each of the following compounds.

>  <compound>
O=C1CC[C@@]2(O)[C@H]3Cc4ccc(O)c5c4[C@@]2(CCN3CC2CC2)[C@H]1O5 [Naltrexone hydrochloride] (top concentration 46.0829 µM)

>  <target-or-test-system>
SB.mhdgc-1

>  <area under the dose-response curve>
607

$$$$
>  <compound>
CCC1=C(C)CN(C(=O)NCCc2ccc(S(=O)(=O)NC(=O)N[C@H]3CC[C@H](C)CC3)cc2)C1=O [Glimepiride] (top concentration 46.0829 µM)

>  <target-or-test-system>
SB.mhdgc-1

>  <area under the dose-response curve>
586

$$$$
>  <compound>
CC[C@]12\C=C/CN3CC[C@]4([C@@H](N(C)C5=CC(=C(C=C45)[C@]6(C[C@H]7C[C@H](CN(C7)CC8=C6[NH]C9=C8C=CC=C9)C(C)(F)F)C(=O)OC)OC)[C@](O)([C@@H]1OC(C)=O)C(=O)OC)[C@H]23 [Vinflunine] (top concentration 46.0829 µM)

>  <target-or-test-system>
SB.mhdgc-1

>  <area under the dose-response curve>
265

$$$$
>  <compound>
O=C1c2c(O)cc(O)cc2OC(c2ccc(O)c(O)c2)C1O (stereo not given) [Taxifolin] (top concentration 46.0829 µM)

>  <target-or-test-system>
SB.mhdgc-1

>  <area under the dose-response curve>
488

$$$$
>  <compound>
Clc1ccc(C(Cn2ccnc2)OCc2c(Cl)cccc2Cl)c(Cl)c1 (stereo not given) [Isoconazole nitrate] (top concentration 46.0829 µM)

>  <target-or-test-system>
SB.mhdgc-1

>  <area under the dose-response curve>
505

$$$$

---

# viability per record follows
# System: SB.mhdgc-1
# experiment: viability at highest tested concentration (MAXR) relative to DMSO; higher = less cytotoxic
# experimental-setup: SB.mhdgc-1 (hereditary c.1380delA CDH1 gastric cancer)
measurement-type: viability (%)

>  <compound>
COC(=O)Nc1ccc(-c2nc(N3CCOCC3)c3cnn(C4CCN(Cc5cccnc5)CC4)c3n2)cc1 [WYE-687] (top concentration 46.0829 µM)

>  <result-unit>
%

>  <readout-number>
20.2

$$$$
>  <compound>
C=CC(=O)Nc1cc2c(Nc3ccc(F)c(Cl)c3)ncnc2cc1OCCCN1CCOCC1 [Canertinib] (top concentration 46.0829 µM)

>  <result-unit>
%

>  <readout-number>
2.07

$$$$
>  <compound>
C[C@H]1COC/2=C1/C(=O)C(=O)C3=C4CCCC(C)(C)C4=CC=C23 [Cryptotanshinone] (top concentration 46.0829 µM)

>  <result-unit>
%

>  <readout-number>
3.87

$$$$
>  <compound>
CCOC(=O)C/1=C(C)/NC(=S)NC1C2=CC=CC(=C2)O (configuration not stated) [Monastrol] (top concentration 46.0829 µM)

>  <result-unit>
%

>  <readout-number>
86.2

$$$$
>  <compound>
CC(C)OC(=O)C(C)(C)Oc1ccc(C(=O)c2ccc(Cl)cc2)cc1 [Fenofibrate] (top concentration 46.0829 µM)

>  <result-unit>
%

>  <readout-number>
14.2

$$$$
>  <compound>
O=P1(N(CCCl)CCCl)NCCCO1 (configuration not stated) [Cyclophosphamide] (top concentration 46.0829 µM)

>  <result-unit>
%

>  <readout-number>
110

$$$$
>  <compound>
C\C1=C\C(=O)OC2=C1C=CC(=C2)O [4-methylumbelliferone] (top concentration 46.0829 µM)

>  <result-unit>
%

>  <readout-number>
103

$$$$

---

Quick reference: viability of the listed items.
# System: SB.mhdgc-1
# experiment: viability at highest tested concentration (MAXR) relative to DMSO; higher = less cytotoxic
# experimental-setup: SB.mhdgc-1 (hereditary c.1380delA CDH1 gastric cancer)
Where a name gives a salt, the structure may show the parent alone.

>  <compound>
CCN(CC)CCCCNc1ncc2c(n1)N(C)C(=O)N(c1c(Cl)c(OC)cc(OC)c1Cl)C2 (top concentration 46.0829 µM)

>  <viability [%]>
30.5

$$$$
>  <compound>
O=C1C(CCC(O)c2ccc(F)cc2)C(c2ccc(O)cc2)N1c1ccc(F)cc1 (stereo unspecified) [Ezetimibe] (top concentration 46.0829 µM)

>  <viability [%]>
103

$$$$
>  <compound>
CCN1CCCC1CNC(=O)c1cc([S+](N)(=O)[O-])ccc1OC (stereo unspecified) [Levosulpiride] (top concentration 46.0829 µM)

>  <viability [%]>
140

$$$$
>  <compound>
COc1cc(OC)c(C(=O)CCCN2CCCC2)c(OC)c1 [Buflomedil hydrochloride] (top concentration 46.0829 µM)

>  <viability [%]>
89.9

$$$$
>  <compound>
CN(C)CCOC(c1ccccc1)c1ccccc1 [Diphenhydramine] (top concentration 46.0829 µM)

>  <viability [%]>
10.1

$$$$
>  <compound>
CC1=CC(=CC(=C1C\C2=N\CCN2)C)C(C)(C)C [Xylometazoline hydrochloride] (top concentration 46.0829 µM)

>  <viability [%]>
63.3

$$$$

---

# Test system: SB.mhdgc-1
# experiment: viability at highest tested concentration (MAXR) relative to DMSO; higher = less cytotoxic
# experimental-setup: SB.mhdgc-1 (hereditary c.1380delA CDH1 gastric cancer)
Where a name gives a salt, the structure may show the parent alone.
Below, each entry is listed with its recorded viability.
measurement-type: viability (%)

>  <molecule>
O=C1Nc2ccc(Cl)cc2C(C#CC2CC2)(C(F)(F)F)O1 (stereo not drawn) [Efavirenz] (top concentration 46.0829 µM)

>  <target-or-test-system>
SB.mhdgc-1

>  <measurement-type>
viability

>  <readout-number>
52

$$$$
>  <molecule>
CC[C@H]1OC(=O)[C@H](C)C(=O)[C@H](C)[C@@H](O[C@H]2O[C@H](C)C[C@H](N(C)C)[C@H]2O)[C@](C)(OC)C[C@@H](C)C(=O)[C@H](C)[C@H]2N(CCCCn3cnc(-c4cccnc4)c3)C(=O)O[C@]12C [Telithromycin] (top concentration 46.0829 µM)

>  <target-or-test-system>
SB.mhdgc-1

>  <measurement-type>
viability

>  <readout-number>
82.1

$$$$
>  <molecule>
COC1CCC(C(=O)c2ccc3nc4c(cc3c2)CCCO4)CC1 (stereo not drawn) (top concentration 46.0829 µM)

>  <target-or-test-system>
SB.mhdgc-1

>  <measurement-type>
viability

>  <readout-number>
4.89

$$$$
>  <molecule>
N=C(CCSCc1csc(N=C(N)N)n1)N[S+](N)(=O)[O-] [Famotidine] (top concentration 46.0829 µM)

>  <target-or-test-system>
SB.mhdgc-1

>  <measurement-type>
viability

>  <readout-number>
83.3

$$$$
>  <molecule>
CC(C)C[C@H](NC(=O)[C@@H](NC(=O)c1cccc(-c2ccccc2)n1)[C@@H](C)O)B(O)O [Delanzomib] (top concentration 46.0829 µM)

>  <target-or-test-system>
SB.mhdgc-1

>  <measurement-type>
viability

>  <readout-number>
1.09

$$$$
>  <molecule>
COC1=CC=C(C=C1O)C/2=C/C(=O)C3=C(O2)C=C(O[C@@H]4O[C@H](CO[C@@H]5O[C@@H](C)[C@H](O)[C@@H](O)[C@H]5O)[C@@H](O)[C@H](O)[C@H]4O)C=C3O [Diosmin] (top concentration 46.0829 µM)

>  <target-or-test-system>
SB.mhdgc-1

>  <measurement-type>
viability

>  <readout-number>
39.5

$$$$
>  <molecule>
CCC(=O)N1CCN(CC1)C2=C(C=C(C=C2)N3C(=O)\C=C/C4=C3C5=CC(=CC=C5N=C4)C6=CN=C7C=CC=CC7=C6)C(F)(F)F [Torin-1] (top concentration 46.0829 µM)

>  <target-or-test-system>
SB.mhdgc-1

>  <measurement-type>
viability

>  <readout-number>
28.6

$$$$
>  <molecule>
CC(C)(O)Cn1c(NC(=O)c2ccc(-c3cn[nH]c3)s2)nc2cc(CN3CCOCC3)ccc21 (top concentration 46.0829 µM)

>  <target-or-test-system>
SB.mhdgc-1

>  <measurement-type>
viability

>  <readout-number>
7.07

$$$$
>  <molecule>
CCNC(=O)c1noc(-c2cc(C(C)C)c(O)cc2O)c1-c1ccc(CN2CCOCC2)cc1 [NVP-AUY922] (top concentration 46.0829 µM)

>  <target-or-test-system>
SB.mhdgc-1

>  <measurement-type>
viability

>  <readout-number>
35

$$$$
>  <molecule>
CNC(=O)N1\N=C(\C2=CC=C(N)C=C2)C3=CC4=C(OCO4)C=C3CC1C (stereo not drawn) (top concentration 46.0829 µM)

>  <target-or-test-system>
SB.mhdgc-1

>  <measurement-type>
viability

>  <readout-number>
72.1

$$$$
>  <molecule>
Nc1cccc2c1CN(C1CCC(=O)NC1=O)C2=O (stereo not drawn) [Lenalidomide] (top concentration 92.1659 µM)

>  <target-or-test-system>
SB.mhdgc-1

>  <measurement-type>
viability

>  <readout-number>
120

$$$$
>  <molecule>
O=C1NC(=O)/C(=C/c2ccc3nccc(-c4ccncc4)c3c2)S1 [GSK-615] (top concentration 46.0829 µM)

>  <target-or-test-system>
SB.mhdgc-1

>  <measurement-type>
viability

>  <readout-number>
15.3

$$$$
>  <molecule>
CN(Cc1cc(Br)cc(Br)c1N)C1CCCCC1 [Bromhexine hydrochloride] (top concentration 46.0829 µM)

>  <target-or-test-system>
SB.mhdgc-1

>  <measurement-type>
viability

>  <readout-number>
106

$$$$
>  <molecule>
C/C=C/C/C=C/CCC(=O)[C@H]1O[C@H]1C(N)=O [Cerulenin] (top concentration 46.0829 µM)

>  <target-or-test-system>
SB.mhdgc-1

>  <measurement-type>
viability

>  <readout-number>
67.9

$$$$
>  <molecule>
COc1ccc(C(=O)CC2(O)C(=O)Nc3c(Cl)ccc(Cl)c32)cc1 (stereo not drawn) [YK-4-279] (top concentration 46.0829 µM)

>  <target-or-test-system>
SB.mhdgc-1

>  <measurement-type>
viability

>  <readout-number>
65.7

$$$$
>  <molecule>
COc1ccc(F)c(F)c1C(=O)c1cnc(NC2CCN([S+](C)(=O)[O-])CC2)nc1N [R-547] (top concentration 46.0829 µM)

>  <target-or-test-system>
SB.mhdgc-1

>  <measurement-type>
viability

>  <readout-number>
50.3

$$$$
>  <molecule>
O=C(NC[C@H](O)CO)c1ccncc1Nc1ccc(I)cc1F [Pimasertib] (top concentration 46.0829 µM)

>  <target-or-test-system>
SB.mhdgc-1

>  <measurement-type>
viability

>  <readout-number>
34.6

$$$$
>  <molecule>
C[C@H](NCc1ccc2c(c1)nc(NC(=O)c1ccc(-c3cn[nH]c3)s1)n2CCc1ccccc1)C(C)(C)C (top concentration 46.0829 µM)

>  <target-or-test-system>
SB.mhdgc-1

>  <measurement-type>
viability

>  <readout-number>
2.84

$$$$
>  <molecule>
CN(C)C1=C(Br)C=C(C=C1)C\2NC3=C(\C4=C2C(=O)CC(C)(C)C4)C5=CC=CC=C5C=C3 (stereo not drawn) [GLS968] (top concentration 46.0829 µM)

>  <target-or-test-system>
SB.mhdgc-1

>  <measurement-type>
viability

>  <readout-number>
51.1

$$$$
>  <molecule>
COc1cccc2cc(-c3nc(C4CCC(C(=O)O)CC4)n4ncnc(N)c34)[nH]c12 (stereo not drawn) [OSI-027] (top concentration 46.0829 µM)

>  <target-or-test-system>
SB.mhdgc-1

>  <measurement-type>
viability

>  <readout-number>
35.5

$$$$
>  <molecule>
NC(=O)N/N=C/c1ccc([N+](=O)[O-])o1 [Nitrofurazone] (top concentration 46.0829 µM)

>  <target-or-test-system>
SB.mhdgc-1

>  <measurement-type>
viability

>  <readout-number>
82.6

$$$$
>  <molecule>
CN(C)c1ccc2nc3ccc(N(C)C)cc3[s+]c2c1 [Methylene blue] (top concentration 46.0829 µM)

>  <target-or-test-system>
SB.mhdgc-1

>  <measurement-type>
viability

>  <readout-number>
4.3

$$$$
>  <molecule>
O=C([O-])C[C@H](O)C[C@H](O)/C=C/c1c(C2CC2)nc2ccccc2c1-c1ccc(F)cc1 [Pitavastatin calcium] (top concentration 46.0829 µM)

>  <target-or-test-system>
SB.mhdgc-1

>  <measurement-type>
viability

>  <readout-number>
85.8

$$$$
